Reported Kd by item:
targetUnderTest: T1, wild type (WT) GPIIb/IIIa ectodomain (heterodimer of SEQ ID NOs: 1 and 3) (human, UniProt P08514 32-993; P05106 27-716)
T1 construct: Recombinant purified ectodomain; also called GP2b3a; integrin αIIbβ3
assayRemarks: apparent monovalent affinity for GP2b3a (SEQ ID: 1 and 3); BLI or SPR, the method of each row is not given
Give the number first and the unit second.

Illustrative cases are given below, each with its answer.
BIIB-4-156 (Fab, V domains shown, Tested as Fab made from yeast-expressed, protein A-purified antibody; Only VH and VL are tied to the clone) VH: QVQLVQSGAEVKKPGSSVKVSCKASGGTFSSYAISWVRQAPGQGLEWMGGIIPIFGTANYAQKFQGRVTITADESTSTAYMELSSLRSEDTAVYYCARDTGYYGASLYFDYWGQGTLVTVSS VL: EIVLTQSPATLSLSPGERATLSCRASQSVSSYLAWYQQKPGQAPRLLIYDASNRATGIPARFSGSGSGTDFTLTISSLEPEDFAVYYCQQRSALPRTFGGGTKVEIK
11 nM
BIIB-4-224 (Fab, V domains shown, Tested as Fab made from yeast-expressed, protein A-purified antibody; Only VH and VL are tied to the clone) VH: QLQLQESGPGLVKPSETLSLTCTVSGGSISSSSYYWGWIRQPPGKGLEWIGSIYYSGSTYYNPSLKSRVTISVDTSKNQFSLKLSSVTAADTAVYYCARDFYSSVYGMDVWGQGTTVTVSS VL: DIQLTQSPSSLSASVGDRVTITCRASQSISSFLNWYQQKPGKAPKLLIYAASSLQSGVPSRFSGSGSGTDFTLTISSLQPEDFATYYCQQSYVHPLTFGGGTKVEIK
200 nM

Req: Fill in reported Kd for this entry: BIIB-4-204 (Fab, V domains shown, Tested as Fab made from yeast-expressed, protein A-purified antibody; Only VH and VL are tied to the clone) VH: QVQLVQSGAEVKKPGASVKVSCKASGYTFTSYSMHWVRQAPGQGLEWMGIINPSGGSTSYAQKFQGRVTMTRDTSTSTVYMELSSLRSEDTAVYYCARSYDIGYFDLWGRGTLVTVSS VL: EIVLTQSPATLSLSPGERATLSCRASQSVSSYLAWYQQKPGQAPRLLIYDASKRATGIPARFSGSGSGTDFTLTISSLEPEDFAVYYCQQDSFLPFTFGGGTKVEIK
Resp: 170 nM
